# Test system: Plasmodium berghei
# assay_details: Screen against P. berghei liver stage (PbLuc), transformed with Luciferase, at 10uM
# Format: functional, HepG2
# setup_conditions: tested at 10 uM
Hit rate of the full screen: of about 69,000 compounds, about 8,600 (12%) showed an effect of 50% or more. The entries come from a sample that favours strong results as a whole.
In this section, each of the compounds is paired with its reported INHIBITION.
Numbers only; they are read as %.

Example results:
> print(dat)
                                   compound  measured.quantity  numeric.readout
1  Cc1noc(C2CCN(C(=O)c3ccc(NC4CC4)nc3)CC2)n1         INHIBITION             59.7
2       CCN(Cc1cccc2c1OCO2)C(=O)Nc1cn[nH]c1         INHIBITION              -16
3  O=C1CC(N(C(=O)c2ccc(F)c(C(F)(F)F)c2)C2CC2)C(=O)N1 (stereo not given)         INHIBITION            0.914
4     Cc1cc(N2CCC(c3n[nH]c4nccnc34)CC2)ncn1         INHIBITION             58.1
5  CC(C)N1CCC(c2n[nH]cc2-c2ccnc(N)c2)C1 (stereo not given)         INHIBITION             26.5
6  CC(C)Nc1cc(-c2c[nH]nc2C2CCN(C(=O)C3CCC3)C2)ccn1 (stereo not given)         INHIBITION            88.45
7  Cc1noc(C2CCN(C(=O)c3ccc(N(C)C)nc3)CC2)n1         INHIBITION             6.92
8                CCc1nc(C)cn1C(=O)Nc1ccccc1         INHIBITION             48.6
9  O=C(NCCO)c1sc2ncccc2c1C1CN(C2CCCC2)CCO1 (stereo not given)         INHIBITION            -10.4

Would you kindly look at the next entry?
Query: What value of INHIBITION has been recorded for this entry: COc1ccc(C2CCCN2c2nnc(C)s2)c(OC)c1 (stereo not given)
Result: 15.5

###

In this section, each of the compounds is paired with its reported INHIBITION.
# Tested on: Plasmodium berghei
# assay_details: Screen against P. berghei liver stage (PbLuc), transformed with Luciferase, at 10uM
# Assay type: functional, HepG2
# setup_conditions: tested at 10 uM
The whole screen tested about 69,000 compounds, of which about 8,600 (12%) showed an effect of 50% or more. This is one part of a sample in which strong results are shown more often than they occur.
Units required after the number.

> print(dat)
                                   compound  result
1  Cc1cnc(CN2CCCC2c2cnn(C)c2)cn1 (stereo unspecified)  -11.4%
2  CCn1ccc(NC(=O)CN2C(=O)C(C)(C)c3ccccc32)n1   23.1%
3  COCCN1C[C@@H](c2ccccc2)[C@@]2(CCN(CC(=O)N(C)C)C2=O)C1  -4.82%
4  COCCc1noc(CN(C)C(=O)C(C)N2CCc3ccccc3C2)n1 (stereo unspecified)   2.29%
5           COCc1nc(CNC2CCC3(CCNCC3)CC2)no1   12.1%
6  c1ccc([C@@H]2CN(Cc3ccncc3)C[C@H]2c2cc[nH]n2)cc1   27.2%
7   Cn1cc(CN2CCc3c(CNC(=O)C4CC4)cncc3C2)cn1  -17.2%
8     O=C(CCN1CCOC1=O)Nc1cnn(-c2ccccc2Cl)c1   13.3%

Would you kindly look at the next entry?
Query: What value of INHIBITION has been recorded for this entry: CC(C)NC(=O)c1nnc2ccc(N3CCOCC3)cc2n1
Result: -3.11%

###

In this section, each of the compounds is paired with its reported INHIBITION.
# Tested on: Plasmodium berghei
# assay_details: Screen against P. berghei liver stage (PbLuc), transformed with Luciferase, at 10uM
# Type: functional, HepG2
# setup_conditions: tested at 10 uM
In all, about 69,000 compounds went through this assay and about 8,600 (12%) showed an effect of 50% or more. For the sample, strong results were picked, then their nearest neighbours and some compounds at random.
Units required after the number.

Example results:
> print(dat)
                                    compound  measured.quantity  result
 1  Cc1ccc(-c2nc(CN(Cc3cccs3)C3CCS(=O)(=O)C3)cs2)o1 (centres undefined)         INHIBITION   87.6%
 2  O=C(NCC1(N2CCOCC2)CCSC1)Nc1ccncc1 (centres undefined)         INHIBITION   18.6%
 3  Cc1ccc(-c2nc(CN3CCC(C(=O)N(C)C)CC3)cs2)o1         INHIBITION   39.5%
 4  c1nc(NCC2(N3CCOCC3)CCSC2)c2sccc2n1 (centres undefined)         INHIBITION   91.1%
 5  CN(C)CCN1CC(C(=O)NCc2cn3cccnc3n2)CC1=O (centres undefined)         INHIBITION   23.9%
 6      COc1ccc(CC(=O)N2CCN(c3nccn3C)CC2)cc1         INHIBITION     40%
 7   CCC(=O)N1CCN(c2nc(C)nc3c(C)nn(C)c23)CC1         INHIBITION   27.5%
 8  Cc1ccc(-c2nc(CN3CCCC(C(=O)N(C)C)C3)cs2)o1 (centres undefined)         INHIBITION   35.9%
 9  Cc1noc(C)c1CN(Cc1cccs1)C1CCS(=O)(=O)C1 (centres undefined)         INHIBITION   36.1%
10  O=C(NCCNc1ccc(C(F)(F)F)cn1)c1cc(Cl)ccc1F         INHIBITION   37.3%

Query: What value of INHIBITION has been recorded for this entry: CN(Cc1ccnc2ccccc12)C1CCS(=O)(=O)C1 (centres undefined)
Result: 45.2%

Query: Next record, please: CN(C)Cc1ccnc(C2CCCN2Cc2ccc(F)cn2)n1 (centres undefined)
Result: 63.4%

Query: Next record, please: c1ccc2c(NCC3(N4CCOCC4)CCSC3)ncnc2c1 (centres undefined)
Result: 94.5%

Query: Next record, please: O=C(NCCn1ccnc1)N1CCCC1c1cccs1 (centres undefined)
Result: 7.333%

###

# System: Plasmodium berghei
# assay_details: Screen against P. berghei liver stage (PbLuc), transformed with Luciferase, at 10uM
# Assay type: functional, HepG2
# setup_conditions: tested at 10 uM
In all, about 69,000 compounds went through this assay and about 8,600 (12%) showed an effect of 50% or more. The full list was thinned out, with strong results kept by preference.
measured_quantity: INHIBITION

> print(dat)
                                   molecule  measured.quantity  result
1  CCOC(=O)NCCC(=O)NCc1ccc(Oc2cccc(F)c2)nc1         INHIBITION   35.5%

Query: What value of INHIBITION has been recorded for this entry: CN1CCC(N2CCOC[C@H]2c2nc(-c3ccncc3)c[nH]2)CC1
Result: 35.8%

Query: Next record, please: CC(C)N(C)Cc1cnc2n1CCN(Cc1ccc(F)cc1)C2
Result: 17.4%

Query: Next record, please: CC(C)(C)c1c[nH]c([C@@H]2COCCN2C2CCC2)n1
Result: 23%

Query: Next record, please: CCOC(=O)NCCC(=O)NCc1ccc(Oc2ccc(F)cc2)nc1
Result: 61.5%

Query: Next record, please: COCC1c2c(cnn2C)CCN1C(=O)c1cc(C)on1 (centres undefined)
Result: 38.5%

###

# System: Plasmodium berghei
# assay_details: Screen against P. berghei liver stage (PbLuc), transformed with Luciferase, at 10uM
# Assay type: functional, HepG2
# setup_conditions: tested at 10 uM
The campaign covered roughly 69,000 compounds. About 8,600 (12%) showed an effect of 50% or more. The sample as a whole holds a higher share of strong results than the screen did.
Bucketed by reported INHIBITION, buckets being bucket A: < 10%; bucket B: ≥ 10% and < 50%; bucket C: ≥ 50%

Use these answered entries as a reference point.
> print(dat)
                                   compound  measurement.target  answer.label
1  O=C(Nc1cccnc1)[C@@H]1C[C@H]2OCC[C@H]2N(Cc2ccsc2)C1  Plasmodium berghei      bucket A
2  CO[C@@H]1CC[C@@H](N(C)C(=O)c2cn3cc(C)ccc3n2)[C@H]1O  Plasmodium berghei      bucket A
3  O=C(Cn1nc2c(cc1=O)CSCC2)N[C@@H](Cc1ccccc1)C(=O)O  Plasmodium berghei      bucket A
4  Cc1nn(CCO)cc1CN1CCC(C(C)N2CCCC2)CC1 (stereo unspecified)  Plasmodium berghei      bucket B
5  Cn1cc(CN2CC(C(=O)Nc3ccccc3)C3(CCOCC3)C2)cn1 (stereo unspecified)  Plasmodium berghei      bucket B
6      CCn1cc(CN2CCC(N3CCC(O)CC3)CC2)cc1C#N  Plasmodium berghei      bucket C

Query: # bin label for Cc1cc(C)cc(CNC(c2ccccc2)c2nccn2C)c1 (stereo unspecified)
Result: bucket B

Query: Next record, please: Cc1cc(N2CCC(O)(CN(C)C(=O)CCCN)C2)c2cnccc2n1 (stereo unspecified)
Result: bucket A
